Test system: 945468-187-T-J3-PDC spheroids with HUVEC/MSC, viability
METHOD DESCRIPTION: Anticancer human tumor 945468-187-T-J3-PDC patient-derived rectal carcinoma cell line growth inhibition [PI3K]
SETUP CONDITIONS: second compound 0.1 µM; first compound 0.001 µM; stronger effect = lower value
From the text: Combinatorial screen of targeted agents with the PI3K inhibitors inavolisib, alpelisib, duvelisib, and copanlisib in multi-cell type tumor spheroids A high-throughput screen of multi-cell type tumor spheroids was designed to identify active combinations of targeted small molecules and PI3K pathway inhibitors. […] Compounds. […] If the clinical Cmax for an agent had not been determined, the highest concentration tested was 10 microM. […]
MEASURED ENDPOINT: viability, T/C

compound="CC(C)n1nc(-c2ccc3oc(N)nc3c2)c2c(N)ncnc21 + CC(Nc1ncnc2nc[nH]c12)c1cc2cccc(Cl)c2c(=O)n1-c1ccccc1" result=103%

For each listed entry, give its viability, T/C.
1. Cn1ncnc1[C@H]1c2n[nH]c(=O)c3cc(F)cc(c23)N[C@@H]1c1ccc(F)cc1 + Cc1nc(NC(=O)N2CCCC2C(N)=O)sc1-c1ccnc(C(C)(C)C(F)(F)F)c1
2. CC(=O)c1c(C)c2cnc(Nc3ccc(N4CCNCC4)cn3)nc2n(C2CCCC2)c1=O + CC(Nc1ccc2c(c1)OCCn1cc(N3C(=O)OCC3C(F)F)nc1-2)C(N)=O

1. 105%
2. 111%

---

System: 945468-187-T-J3-PDC spheroids with HUVEC/MSC, viability
METHOD DESCRIPTION: Anticancer human tumor 945468-187-T-J3-PDC cell line growth inhibition [PI3K];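 also: spheroids exposed to agents for 7 days before viability read; 100% = DMSO vehicle control viability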
SETUP CONDITIONS: second compound 0.316 µM; first compound 0.0316 µM; stronger effect = lower value
Label key: 1 means viability, T/C under 80%; -1 means viability, T/C of 80% or more.

compound="C=CC(=O)N1CCN(c2nc(=O)n(-c3c(C)ccnc3C(C)C)c3nc(-c4c(O)cccc4F)c(F)cc23)C(C)C1 (stereo not given) + Cc1nc(NC(=O)N2CCCC2C(N)=O)sc1-c1ccnc(C(C)(C)C(F)(F)F)c1" study_target="945468-187-T-J3-PDC spheroids with HUVEC/MSC, viability" group=-1
compound="CC(C)NCC(C(=O)N1CCN(c2ncnc3c2C(C)CC3O)CC1)c1ccc(Cl)cc1 (stereo not given) + COc1c(OCCCN2CCOCC2)ccc2c3n(c(=NC(=O)c4cnc(N)nc4)nc12)CCN3" study_target="945468-187-T-J3-PDC spheroids with HUVEC/MSC, viability" group=1
compound="Cn1nccc1Nc1nccc(-c2ccn(C(CO)c3ccc(Cl)c(F)c3)c(=O)c2)n1 (stereo not given) + COc1c(OCCCN2CCOCC2)ccc2c3n(c(=NC(=O)c4cnc(N)nc4)nc12)CCN3" study_target="945468-187-T-J3-PDC spheroids with HUVEC/MSC, viability" group=1
compound="C[C@@H](NC(=O)c1ncnc(N)c1Cl)c1ncc(C(=O)Nc2cc(C(F)(F)F)c(Cl)cn2)s1 + COc1c(OCCCN2CCOCC2)ccc2c3n(c(=NC(=O)c4cnc(N)nc4)nc12)CCN3" study_target="945468-187-T-J3-PDC spheroids with HUVEC/MSC, viability" group=1
compound="CCCS(=O)(=O)Nc1ccc(F)c(C(=O)c2c[nH]c3ncc(-c4ccc(Cl)cc4)cc23)c1F + CC(Nc1ccc2c(c1)OCCn1cc(N3C(=O)OCC3C(F)F)nc1-2)C(N)=O" study_target="945468-187-T-J3-PDC spheroids with HUVEC/MSC, viability" group=-1

Would you kindly verify if viability, T/C of CC1(C)CCC(Nc2ncc(C(F)(F)F)c(-c3c[nH]c4c(P(C)(C)=O)c(C#N)ccc34)n2)CN1 (stereo not given) + CC(Nc1ccc2c(c1)OCCn1cc(N3C(=O)OCC3C(F)F)nc1-2)C(N)=O is strictly less than 80%? -1

Would you kindly verify if viability, T/C of CC1(C)CCC(Nc2ncc(C(F)(F)F)c(-c3c[nH]c4c(P(C)(C)=O)c(C#N)ccc34)n2)CN1 (stereo not given) + Cc1nc(NC(=O)N2CCCC2C(N)=O)sc1-c1ccnc(C(C)(C)C(F)(F)F)c1 is strictly less than 80%? -1

Would you kindly verify if viability, T/C of CC1(C)CCC(CN2CCN(c3ccc(C(=O)NS(=O)(=O)c4ccc(NCC5CCOCC5)c([N+](=O)[O-])c4)c(Oc4cnc5[nH]ccc5c4)c3)CC2)=C(c2ccc(Cl)cc2)C1 + Cc1nc(NC(=O)N2CCCC2C(N)=O)sc1-c1ccnc(C(C)(C)C(F)(F)F)c1 is strictly less than 80%? -1

Would you kindly verify if viability, T/C of CC1(C)CCC(Nc2ncc(C(F)(F)F)c(-c3c[nH]c4c(P(C)(C)=O)c(C#N)ccc34)n2)CN1 (stereo not given) + CC(Nc1ncnc2nc[nH]c12)c1cc2cccc(Cl)c2c(=O)n1-c1ccccc1 is strictly less than 80%? 1

Would you kindly verify if viability, T/C of CNC(=O)c1ccc(N2C(=S)N(c3ccc(C#N)c(C(F)(F)F)c3)C(=O)C2(C)C)cc1F + COc1c(OCCCN2CCOCC2)ccc2c3n(c(=NC(=O)c4cnc(N)nc4)nc12)CCN3 is strictly less than 80%? 1

---

Test system: 945468-187-T-J3-PDC spheroids with HUVEC/MSC, viability
METHOD DESCRIPTION: Anticancer human tumor 945468-187-T-J3-PDC cell line growth inhibition [PI3K];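 also: spheroids exposed to agents for 7 days before viability read; 100% = DMSO vehicle control viability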
SETUP CONDITIONS: second compound 0.00316 µM; first compound 0.01 µM; stronger effect = lower value
Text: Combinatorial screen of targeted agents with the PI3K inhibitors inavolisib, alpelisib, duvelisib, and copanlisib in multi-cell type tumor spheroids A high-throughput screen of multi-cell type tumor spheroids was designed to identify active combinations of targeted small molecules and PI3K pathway inhibitors. […] Compounds. […] If the clinical Cmax for an agent had not been determined, the highest concentration tested was 10 microM. […]
MEASURED ENDPOINT: viability, T/C (%)
Numbers only, in %.

molecule="CC(C)n1nc(-c2ccc3oc(N)nc3c2)c2c(N)ncnc21 + COc1c(OCCCN2CCOCC2)ccc2c3n(c(=NC(=O)c4cnc(N)nc4)nc12)CCN3" measured_number=78.7
molecule="CC(=O)c1c(C)c2cnc(Nc3ccc(N4CCNCC4)cn3)nc2n(C2CCCC2)c1=O + CC(Nc1ccc2c(c1)OCCn1cc(N3C(=O)OCC3C(F)F)nc1-2)C(N)=O" measured_number=99.2
molecule="CCN1CCN(Cc2ccc(Nc3ncc(F)c(-c4cc(F)c5nc(C)n(C(C)C)c5c4)n3)nc2)CC1 + COc1c(OCCCN2CCOCC2)ccc2c3n(c(=NC(=O)c4cnc(N)nc4)nc12)CCN3" measured_number=83.6
molecule="CCN1CCN(Cc2ccc(Nc3ncc(F)c(-c4cc(F)c5nc(C)n(C(C)C)c5c4)n3)nc2)CC1 + CC(Nc1ccc2c(c1)OCCn1cc(N3C(=O)OCC3C(F)F)nc1-2)C(N)=O" measured_number=103
molecule="Cn1ncnc1[C@H]1c2n[nH]c(=O)c3cc(F)cc(c23)N[C@@H]1c1ccc(F)cc1 + COc1c(OCCCN2CCOCC2)ccc2c3n(c(=NC(=O)c4cnc(N)nc4)nc12)CCN3" measured_number=92.6

For each listed entry, give its viability, T/C.
1. CC(=O)c1c(C)c2cnc(Nc3ccc(N4CCNCC4)cn3)nc2n(C2CCCC2)c1=O + COc1c(OCCCN2CCOCC2)ccc2c3n(c(=NC(=O)c4cnc(N)nc4)nc12)CCN3
2. CC(C)n1nc(-c2ccc3oc(N)nc3c2)c2c(N)ncnc21 + CC(Nc1ccc2c(c1)OCCn1cc(N3C(=O)OCC3C(F)F)nc1-2)C(N)=O

1: 92.3; 2: 116

---

System: 945468-187-T-J3-PDC spheroids with HUVEC/MSC, viability
METHOD DESCRIPTION: Anticancer human tumor 945468-187-T-J3-PDC cell line growth inhibition [PI3K];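 also: spheroids exposed to agents for 7 days before viability read; 100% = DMSO vehicle control viability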
SETUP CONDITIONS: second compound 0.316 µM; first compound 0.01 µM; stronger effect = lower value
MEASURED ENDPOINT: viability, T/C

compound="CCN1CCN(Cc2ccc(Nc3ncc(F)c(-c4cc(F)c5nc(C)n(C(C)C)c5c4)n3)nc2)CC1 + CC(Nc1ccc2c(c1)OCCn1cc(N3C(=O)OCC3C(F)F)nc1-2)C(N)=O" measured_endpoint="viability, T/C" result=77.5%
compound="Cn1ncnc1[C@H]1c2n[nH]c(=O)c3cc(F)cc(c23)N[C@@H]1c1ccc(F)cc1 + CC(Nc1ncnc2nc[nH]c12)c1cc2cccc(Cl)c2c(=O)n1-c1ccccc1" measured_endpoint="viability, T/C" result=103%
compound="CCN1CCN(Cc2ccc(Nc3ncc(F)c(-c4cc(F)c5nc(C)n(C(C)C)c5c4)n3)nc2)CC1 + COc1c(OCCCN2CCOCC2)ccc2c3n(c(=NC(=O)c4cnc(N)nc4)nc12)CCN3" measured_endpoint="viability, T/C" result=16.3%

# get_value(readout='viability, T/C', item= CC(C)n1nc(-c2ccc3oc(N)nc3c2)c2c(N)ncnc21 + CC(Nc1ccc2c(c1)OCCn1cc(N3C(=O)OCC3C(F)F)nc1-2)C(N)=O ) 77.8%

Values from PubChem BioAssay AID1963968
